Values were extracted from ChEMBL document CHEMBL4130634.

assay: Metabolic stability in mouse liver microsomes assessed as parent compound remaining at 1 uM preincubated for 10 mins followed by NADP addition after 20 mins by LC-MS/MS analysis; type: ADME, microsome; details: read-out: Stability
Test Readout: remaining at 20 min, 1 µM (%)

1. COc1cc2c(NC3CCN(C(C)C)CC3)cc(-c3ccc(C)o3)nc2cc1OCCCN1CCCC1 ... 36.9
2. CCc1ccc(-c2cc(NC3CCN(C)CC3)c3cc(OC)c(OCCCN4CCCC4)cc3n2)o1 ... 16.9
3. COc1cc2c(NC3CCN(C)CC3)cc(-c3ccc(C)o3)nc2cc1OCCCN1CCCC1 ... 70.9
4. COc1cc2c(NC3CCN(C4CC4)CC3)cc(-c3ccc(C)o3)nc2cc1OCCCN1CCCC1 ... 15
